measured attribute: flash point

The cases that follow already have their flash point on record.
[[record]]
compound_structure = "CC(C)S"
value = "-34.00 °C"

[[record]]
compound_structure = "Cc1ccc(C(C)C)c(O)c1"
value = "110.00 °C"


Then there is this compound:
Request: Item C=CC(=O)O has what recorded flash point?
Response: 54.00 °C

###

So basically: flash point at 30 °C or higher? That is Fulfilled. Lower than 30 °C? That is Not fulfilled.

These solved cases illustrate the format of a correct answer.
[[record]]
compound = "C[C@@H]1CCCC[C@@H]1C [cis-1,2-dimethylcyclohexane]"
category = "Not fulfilled"

[[record]]
compound = "CCCCCCC(=O)O"
category = "Fulfilled"

[[record]]
compound = "C=C(C)CO"
category = "Fulfilled"


Then this compound:
Request: Hi team, for Cc1ccncc1 [4-picoline] , is the recorded flash point at or above 30 °C?
Response: Fulfilled

###

So basically: flash point at 60 °C or higher? That is 1 (yes). Lower than 60 °C? That is 0 (no).

These solved cases illustrate the format of a correct answer.
[[record]]
compound = "C=COC(=O)CCC [ethenyl butanoate]"
category = "0 (no)"

[[record]]
compound = "CCCOC(C)=O [propyl acetate]"
category = "0 (no)"

[[record]]
compound = "CC(C)CCCCCCC=O"
category = "1 (yes)"

[[record]]
compound = "C[Si]1(C)O[Si](C)(C)O[Si](C)(C)O[Si](C)(C)O[Si](C)(C)O1"
category = "1 (yes)"

[[record]]
compound = "FC(F)(F)c1ccc(Cl)c(Cl)c1"
category = "1 (yes)"

[[record]]
compound = "O=P(OCCCl)(OCCCl)OCCCl [tris(2-chloroethyl) phosphate]"
category = "1 (yes)"

[[record]]
compound = "COP(=S)(OC)Oc1nc(Cl)c(Cl)cc1Cl"
category = "1 (yes)"

[[record]]
compound = "Cc1ccc(S(=O)(=O)O)cc1"
category = "1 (yes)"

[[record]]
compound = "C=Cc1ccc(C)nc1"
category = "1 (yes)"

[[record]]
compound = "NCCCCCN"
category = "1 (yes)"


Request: Hi team, for CCCCC(CC)C(=O)O (stereo not drawn) , is the recorded flash point at or above 60 °C?
Response: 1 (yes)

Request: Hi team, for ClC(Cl)=C(Cl)C(Cl)=C(Cl)Cl , is the recorded flash point at or above 60 °C?
Response: 1 (yes)

Request: Hi team, for CCOC(=O)CCl [ethyl 2-chloroacetate] , is the recorded flash point at or above 60 °C?
Response: 0 (no)

Request: Hi team, for CCCC(=O)Cl [butanoyl chloride] , is the recorded flash point at or above 60 °C?
Response: 0 (no)

Request: Hi team, for O=[N+]([O-])c1cc(Cl)cc(Cl)c1 , is the recorded flash point at or above 60 °C?
Response: 1 (yes)

Request: Hi team, for SC1CCCCC1 , is the recorded flash point at or above 60 °C?
Response: 0 (no)

###

Each record is given MET if its reported flash point is strictly below 60 °C. Records at or above 60 °C are given NOT MET.

[[record]]
molecule = "C=C(C)C(C)=O"
category = "MET"

[[record]]
molecule = "N#CC1CCCCC1"
category = "NOT MET"

[[record]]
molecule = "CCCCCCC(=O)OC [methyl heptanoate]"
category = "MET"

[[record]]
molecule = "Ic1ccccc1"
category = "NOT MET"

[[record]]
molecule = "Cc1ccc(C)c(O)c1"
category = "NOT MET"


Then this molecule:
Request: Quick check: does CCCCCC#CC(=O)OC [methyl 2-octynoate] have flash point under 60 °C?
Response: NOT MET

###

measured attribute: flash point (°C)
Answers are plain numbers, in °C.

The cases that follow already have their flash point on record.
[[record]]
molecule = "CCc1ccc(C(C)(C)C)cc1"
measured_attribute = "flash point"
unit_abbreviation = "°C"
value = 76.0

[[record]]
molecule = "CCc1cc(CC)cc(CC)c1"
measured_attribute = "flash point"
unit_abbreviation = "°C"
value = 81.1

[[record]]
molecule = "CC(C)c1ccc(C(C)C)cc1"
measured_attribute = "flash point"
unit_abbreviation = "°C"
value = 76.1

[[record]]
molecule = "CCC(C)c1ccc(C)cc1C (configuration not stated)"
measured_attribute = "flash point"
unit_abbreviation = "°C"
value = 81.4

[[record]]
molecule = "CCc1ccc(C)c(C)c1"
measured_attribute = "flash point"
unit_abbreviation = "°C"
value = 58.1

[[record]]
molecule = "CCc1ccc(CC)c(C)c1"
measured_attribute = "flash point"
unit_abbreviation = "°C"
value = 73.0

[[record]]
molecule = "Cc1ccc(CC(C)C)cc1"
measured_attribute = "flash point"
unit_abbreviation = "°C"
value = 67.4

[[record]]
molecule = "Cc1cccc(C(C)C)c1"
measured_attribute = "flash point"
unit_abbreviation = "°C"
value = 47.1

[[record]]
molecule = "CCc1cc(C)ccc1C"
measured_attribute = "flash point"
unit_abbreviation = "°C"
value = 56.1

[[record]]
molecule = "CCc1ccc(CC)cc1"
measured_attribute = "flash point"
unit_abbreviation = "°C"
value = 55.1


Batch request: flash point per item, same order as input.
1. CCc1ccc(C)c(CC)c1
2. Cc1ccccc1C(C)C
3. Cc1ccc(C(C)C)c(C)c1
4. CCCC(CC)c1ccccc1 (configuration not stated)

Response:
72.2
50.1
67.2
74.2

Batch request: flash point per item, same order as input.
1. Cc1ccc(C)cc1
2. Cc1ccc(C(C)C)cc1C
3. CCCC(C)c1ccccc1 (configuration not stated)
4. CCCc1ccccc1
5. CCCc1cccc(CC)c1
6. CCCc1ccccc1C
7. CCCCc1ccccc1C
8. CCc1ccc(C)cc1

Response:
1: 25.1; 2: 68.1; 3: 60.7; 4: 42.1; 5: 69.7; 6: 57.8; 7: 72.5; 8: 36.1

###

measured attribute: flash point (°C)
Numbers only, in °C.

The cases that follow already have their flash point on record.
[[record]]
compound = "CCOC(=O)c1ccccc1 [ethylbenzoate]"
unit_abbreviation = "°C"
value = 84

[[record]]
compound = "CCCCC1CCCC1"
unit_abbreviation = "°C"
value = 32

[[record]]
compound = "CCC(C=O)CC"
unit_abbreviation = "°C"
value = 21


Batch request: flash point per item, same order as input.
1. CCC1(C)CCCC1
2. CC(C)CC(C)C(C)C (centres undefined)

Response:
1: 6; 2: 15

Batch request: flash point per item, same order as input.
1. Cc1ccc(O)c(C)c1
2. CC=Cc1ccc(OC)cc1

Response:
1: 94; 2: 96

Batch request: flash point per item, same order as input.
1. CCC(=O)OCCC(C)C [isopentylpropanoate]
2. CCCC(CC)C(C)CC (centres undefined)
3. CCCc1ccc(O)cc1
4. CCCCCS
5. CCC(C)Nc1ccccc1 (centres undefined)
6. CCCOC(=O)OCCC [dipropylcarbonate]
7. C/C=C/C=O [trans-2-butenal]

Response:
1: 46; 2: 41; 3: 106; 4: 18; 5: 93; 6: 55; 7: 9

###

Provide the reported flash point of each item.
Give bare numbers, in °C.

[[record]]
compound = "OC[C@H]1O[C@@H](OC/C=C/c2ccccc2)[C@H](O)[C@@H](O)[C@@H]1O"
unit_abbreviation = "°C"
value = 187.00

[[record]]
compound = "CCCCCCCCCC=O"
unit_abbreviation = "°C"
value = 85.00


Batch request: flash point per item, same order as input.
1. OCCCCl
2. CCN(CC)C(=O)c1cccc(C)c1 [N,N-diethyl-3-methylbenzamide]
3. O=[N+]([O-])c1ccccc1Cl
4. C1=CC2C3C=CC(C3)C2C1 (configuration not stated) [tricyclo[5.2.1.02,6]deca-3,8-diene]
5. CC(C)=CC(=O)C=C(C)C

Response:
1. 73.00
2. 155.00
3. 127.00
4. 32.00
5. 85.00

###

Each record is given TRUE if its reported flash point is strictly below 40 °C. Records at or above 40 °C are given FALSE.

These solved cases illustrate the format of a correct answer.
[[record]]
compound = "CC(=O)CCC(C)=O"
category = "FALSE"

[[record]]
compound = "CCCCC=C(C)C"
category = "TRUE"

[[record]]
compound = "CCC1(C)CCCC1"
category = "TRUE"

[[record]]
compound = "C=CC(C)O (centres undefined)"
category = "TRUE"


Request: Quick check: does CCC(C)c1ccccc1 (centres undefined) have flash point under 40 °C?
Response: FALSE

Request: Quick check: does CCCCOC(=O)c1ccccc1C(=O)OCCCC [dibutyl phthalate] have flash point under 40 °C?
Response: FALSE

Request: Quick check: does CC(Cl)(Cl)Cl have flash point under 40 °C?
Response: TRUE

Request: Quick check: does CCOCCO have flash point under 40 °C?
Response: FALSE

###

So basically: flash point at 50 °C or higher? That is rule met. Lower than 50 °C? That is rule not met.

These solved cases illustrate the format of a correct answer.
[[record]]
compound = "C=CCCCCCC=C"
category = "rule not met"

[[record]]
compound = "CCCCCCCOC=O [heptylformate]"
category = "rule met"

[[record]]
compound = "C=CCSSCC=C [diallyldisulfide]"
category = "rule met"


Request: Hi team, for CCC(C)(CC)CC , is the recorded flash point at or above 50 °C?
Response: rule not met

Request: Hi team, for CC(C)C(C)(C)C , is the recorded flash point at or above 50 °C?
Response: rule not met

Request: Hi team, for CC1=CCCC1 , is the recorded flash point at or above 50 °C?
Response: rule not met
